Attribution: patent US20240392013A1

Target: T1, cyIL1RAP-His (Lake Pharma) (cynomolgus monkey, UniProt A0A2K5X5J5 21-367)
T1 construct: Bought protein (Lake Pharma, lot 16205819371); also called cynomolgus IL1RAP; monkey IL1RAP; not shown: His tag
T1 sequence: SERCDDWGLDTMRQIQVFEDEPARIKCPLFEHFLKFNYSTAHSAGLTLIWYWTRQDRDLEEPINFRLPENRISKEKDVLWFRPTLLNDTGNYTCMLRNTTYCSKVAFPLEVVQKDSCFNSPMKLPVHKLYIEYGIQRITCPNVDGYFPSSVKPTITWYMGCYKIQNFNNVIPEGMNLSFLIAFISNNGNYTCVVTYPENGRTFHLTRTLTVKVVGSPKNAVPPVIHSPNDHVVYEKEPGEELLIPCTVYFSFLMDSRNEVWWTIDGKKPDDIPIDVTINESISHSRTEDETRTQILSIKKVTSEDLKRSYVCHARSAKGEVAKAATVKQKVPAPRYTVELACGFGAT
Experiment: Octet BLI; mAb captured on anti-mouse IgG Fc sensor; cyIL1RAP-His analyte; also: unit not given here

| binder | Response |
| --- | --- |
| STLX2007 (antibody, V domains shown, Purified from hybridoma of immunized Alivamab mice; intact IgG; captured on anti-mouse IgG Fc sensors in Octet; kappa light chain; also called 74804_07K10A) VH: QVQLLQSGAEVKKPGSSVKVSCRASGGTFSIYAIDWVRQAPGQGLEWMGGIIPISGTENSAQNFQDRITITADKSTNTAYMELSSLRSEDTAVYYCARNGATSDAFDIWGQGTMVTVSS VL: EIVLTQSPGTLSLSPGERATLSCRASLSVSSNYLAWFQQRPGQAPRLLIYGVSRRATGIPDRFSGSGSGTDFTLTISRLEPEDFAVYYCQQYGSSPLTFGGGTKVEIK | 0.273 |
| STLX2027 (antibody, V domains shown, Purified from hybridoma of immunized Alivamab mice; intact IgG; captured on anti-mouse IgG Fc sensors in Octet; lambda light chain; also called 74804_27I24A) VH: EVQLVESGGGLVKPGGSLRLSCAASGFTFITYSMNWVRQAPGKGLEWVSSISSISSYIYYADSVKGRFTISRDNAKNSLYLQMDSLRAEDSAVYYCAREGIVGPTGYFDSWGQGTLVTVSS VL: QSVLTQPPSVSAAPGQKVTISCSGSSSNIGNHYVSWYQQLPGTAPKLLIYDNNKRPSGIPDRFSGSKSGTSATLGITGLQTGDEADYYCGTWDSRLSAYWVFGGGTKLTVL | 0.242 |
| STLX2051 (antibody, V domains shown, Purified from hybridoma of immunized Alivamab mice; intact IgG; captured on anti-mouse IgG Fc sensors in Octet; kappa light chain; also called 74804_51C10A) VH: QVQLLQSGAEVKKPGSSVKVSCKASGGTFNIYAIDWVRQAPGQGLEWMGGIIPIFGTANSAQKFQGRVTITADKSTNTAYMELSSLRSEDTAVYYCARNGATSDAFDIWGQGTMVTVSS VL: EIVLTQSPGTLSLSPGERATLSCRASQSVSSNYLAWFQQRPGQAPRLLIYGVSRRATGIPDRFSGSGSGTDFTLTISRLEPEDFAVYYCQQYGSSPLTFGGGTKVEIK | 0.265 |
